- Test system: Saccharomyces cerevisiae
- protocol-text: protein stability index of tFT-peptide fusion (C-terminal peptide) (PSI (0-1 scale)); higher = more stable (slower turnover)
- condition-description: genetic background: doa10 deletion; temperature: 30 C
Output 1 for protein stability index not less than 0.2; output -1 otherwise.

Example cases with answers are listed next.
RCIFYHSPVLCL = 1
LSLSPRLPRLVA = -1
VWFGGLAVCCGG = 1
RVGGVVVLGCVG = 1
YIFLLRFFFFFS = 1

Query: Check if protein stability index >= 0.2 (inclusive). Item: FPRQFVYLPLLF
Result: 1

Query: # bool: protein stability index of CGVWVVVASAYR >= 0.2
Result: 1

Query: Is the recorded value of protein stability index equal to or greater than 0.2 for this sequence? LFWTLSKYLIIC
Result: -1

Query: Is protein stability index for AFVVYSGSHGLV at or above 0.2?
Result: 1

Query: Kindly determine if protein stability index recorded for SCLSLALLVFFG is above or exactly 0.2.
Result: 1

Query: Form field: protein stability index at least 0.2? Entry: VLGRCWWIVSDL
Result: 1

Query: Quick check, protein stability index >= 0.2? LIVFSGFLFLLS
Result: 1

Query: Please indicate if the recorded protein stability index for PPPPHSAPLFLS meets or exceeds 0.2.
Result: 1

Query: Decide: is the reported value of protein stability index for TLNKDILIIKCA equal to or greater than 0.2?
Result: -1

Query: Check the entry GTRAGNPDRQRS : does protein stability index equal or exceed 0.2?
Result: 1

Query: hey, is protein stability index for this one >= 0.2? GCYWPKTLGILC
Result: 1

Query: Check this sequence for protein stability index at or above 0.2: HFLRYCSWFGLL
Result: -1

Query: Is protein stability index for VCLFWLFLWRIL at or above 0.2?
Result: 1

Query: Check this sequence for protein stability index at or above 0.2: FWCVFVFFVCVG
Result: 1

Query: For this sequence, is measured protein stability index 0.2 or higher? VWFFLLSFANRL
Result: 1

Query: Decide: protein stability index of FWGRAGVWRLKG >= 0.2?
Result: 1

###

- System: Saccharomyces cerevisiae
- protocol-text: protein stability index of tFT-peptide fusion (C-terminal peptide) (PSI (0-1 scale)); higher = more stable (slower turnover)
- condition-description: genetic background: cdc34-1; temperature: 37 C
The threshold is inclusive: protein stability index of exactly 0.4 counts as 1.0; values below receive 0.0.

Below are worked cases with known answers.
VVGLVSIVQVIM = 1.0
VGYHCIVGVIFL = 1.0
QRTNTIINKRIV = 1.0

Query: Would you say FFRLFAPLLVVL shows protein stability index at minimum 0.4?
Result: 0.0

Query: Exam item: decide whether the reported protein stability index for VYRRKLDRLLCI is at least 0.4.
Result: 1.0

Query: Decide: protein stability index of CGVWVVVASAYR >= 0.4?
Result: 1.0

Query: Threshold query (protein stability index >= 0.4) on VFHMFGWCGGAR
Result: 1.0

Query: State whether the measured protein stability index reaches 0.4, counting equality as reaching it, for LKCFLVLTFWFS
Result: 0.0

Query: # bool: protein stability index of SVLLVFRFFWEL >= 0.4
Result: 1.0

###

- System: Saccharomyces cerevisiae
- protocol-text: protein stability index of tFT-peptide fusion (C-terminal peptide) (PSI (0-1 scale)); higher = more stable (slower turnover)
- condition-description: genetic background: wild type; temperature: 30 C
Reported protein stability index values follow for various sequences
Reply with the value as a number alone.

Answered cases to consult:
FLAPPFLPPPPA = 0.748
PLALLPPPPHPP = 0.597
CESEAGGGVTLC = 0.669
WCVEGRATGRGW = 0.674
WDGGPTRSGGTG = 0.711
GWSSSCTATRSA = 0.743
TPHQPPPPRPSP = 0.706
NKDGIKKKKYNK = 0.668
SLSFTFPLAPLL = 0.643
PPPASSPPPSAS = 0.626

Memo: LKAACAKRGVLS , reported protein stability index: 0.679

Note to self: protein stability index recorded for RRSVSSRGCLFR was 0.7

Note to self: protein stability index recorded for ARPAPPLPAIPL was 0.663

// protein stability index value for EGEGGKRGEGKR : 0.624

For reference, reported protein stability index for PPDLPTRSPDNP stands at 0.658

The measured protein stability index associated with YKNRKYNGKIRI reads 0.585

Entry DILQITNIKQKR , protein stability index reported as 0.572

Input GKYEALGRFSPG . Output protein stability index: 0.71

Sure, the documented protein stability index for WEACLGRPEAGM is 0.724

###

- System: Saccharomyces cerevisiae
- protocol-text: protein stability index of tFT-peptide fusion (C-terminal peptide) (PSI (0-1 scale)); higher = more stable (slower turnover)
- condition-description: genetic background: cdc34-1; temperature: 37 C
quantity-kind: protein stability index

Some entries whose results are on file:
VCLFWLFLWRIL = 0.208
SKSRKTGWMLIS = 0.622

GET /value?item= FPFFVFRVWFGA &field=protein stability index returns 0.464

###

- System: Saccharomyces cerevisiae
- protocol-text: protein stability index of tFT-peptide fusion (C-terminal peptide) (PSI (0-1 scale)); higher = more stable (slower turnover)
- condition-description: genetic background: wild type; temperature: 30 C
protein stability index of 0.7 or higher: MET. Under 0.7: NOT MET.

Recorded results for 3 sequences are shown here.
FFVRVVGDLRWE = NOT MET
LVSLVGVGWGCG = MET
AEIVCLTDGLLF = NOT MET

Query: Is reported protein stability index greater than or equal to 0.7 here: RKRIPSITLPPP
Result: MET

Query: Hi team, for CGWTATRTCGLV , is the recorded protein stability index at or above 0.7?
Result: MET

Query: protein stability index >= 0.7 for DICYGVALSQVE ?
Result: NOT MET

Query: Determine whether this sequence has protein stability index no lower than 0.7: KSKTYIKKTRKQ
Result: MET

###

- Tested on: Saccharomyces cerevisiae
- protocol-text: protein stability index of tFT-peptide fusion (C-terminal peptide) (PSI (0-1 scale)); higher = more stable (slower turnover)
- condition-description: genetic background: wild type; temperature: 30 C
quantity-kind: protein stability index
Number only, please.

Some solved cases for reference:
PDEISFLQQFTS [KAP104 C-terminal 12 aa] = 0.676
SKGAQKRKNAKK [SHR3 C-terminal 12 aa] = 0.66
IPSIGKPKTIKI [BUD17 C-terminal 12 aa] = 0.702
GFRLRFWKSLGF [CYT2 C-terminal 12 aa] = 0.716
LARGGVASFTVK [RNH70 C-terminal 12 aa] = 0.652

Measured protein stability index for this entry EQNFHFQFPPTN [IOC2 C-terminal 12 aa] on Saccharomyces cerevisiae: 0.729

###

- Test system: Saccharomyces cerevisiae
- protocol-text: protein stability index of tFT-peptide fusion (C-terminal peptide) (PSI (0-1 scale)); higher = more stable (slower turnover)
- condition-description: genetic background: wild type; temperature: 30 C
# Lookup of reported protein stability index keyed by entry
Quick one: just the number, no unit, thanks!

IKIFSERCDGKV [JJJ2 C-terminal 12 aa] = 0.683
PVRMYALKPMPN [TAE1 C-terminal 12 aa] = 0.665
VLIKHDHTNTHI [MMT1 C-terminal 12 aa] = 0.701
SNYGGNSTWGGH [SPT5 C-terminal 12 aa] = 0.673
CYQDYNHDHRSH [OSW2 C-terminal 12 aa] = 0.684
LFDARFERKNPH [SRB8 C-terminal 12 aa] = 0.711
SYRLGKNAAEGK [CAP1 C-terminal 12 aa] = 0.663
LKSVKHSIRVYT [YPR012W C-terminal 12 aa] = 0.604
HEVQNAEQEVAQ [MAK16 C-terminal 12 aa] = 0.681
LFCYCSCDSYES [YBL100C C-terminal 12 aa] = 0.668

The measured protein stability index associated with RKSHERPDDVSV [SUR7 C-terminal 12 aa] reads 0.69

Reported protein stability index for AKSLIHLFTSNQ [NRM1 C-terminal 12 aa] was 0.733

Entry under test: KKKSRMFSFRKS [UBP13 C-terminal 12 aa] . Its protein stability index was 0.709

Input MTGTCFMTDLAP [YKL097C C-terminal 12 aa] . Output protein stability index: 0.695

Measured protein stability index of RNSPSYTGDHKT [YOR072W-A C-terminal 12 aa] : 0.693

###

Measured protein stability index, listed per entry.
- Test system: Saccharomyces cerevisiae
- protocol-text: protein stability index of tFT-peptide fusion (C-terminal peptide) (PSI (0-1 scale)); higher = more stable (slower turnover)
- condition-description: genetic background: das1 deletion; temperature: 30 C
Keep it simple and answer with nothing but the number.

SSAHMSSNAIQR [CDC10 C-terminal 12 aa] = 0.708

Kindly note the recorded protein stability index for TKMFPAHSHVLW [THP1 C-terminal 12 aa] , which is 0.716

// field: protein stability index; key: RGRGALVDSDDE [ELF1 C-terminal 12 aa] ; value = 0.713

Summary for this sequence, LMQLLLGSLGLS [YKL145W-A C-terminal 12 aa] : protein stability index is 0.706

// RQYAGCKVNVGK [NUS1 C-terminal 12 aa] : protein stability index value = 0.707
